- System: HepG2
- method: cytotoxicity call (relative viability < 0.9)
- condition: 10 µM
Screen size: about 39,000 compounds; about 3,300 (8.5%) were called active. The sample as a whole holds a higher share of actives than the screen did.
// one of label 1 for active, label 0 for inactive, no free text

Query block: Hey, what did the test say about "COc1cccc(NC(=O)N(C)C[C@@H]2Oc3cc(C#Cc4ccncc4)ccc3S(=O)(=O)N([C@H](C)CO)C[C@@H]2C)c1" ?
Result block: label 1

Query block: Per the records of this test, what outcome belongs to "COc1ccc(NC(=O)Nc2ccc3c(c2)C(=O)N([C@H](C)CO)C[C@@H](C)[C@H](CN(C)S(=O)(=O)c2ccc(OC)cc2)OCCCC[C@@H](C)O3)cc1" ?
Result block: label 1

Query block: Please share the test call associated with CC(C=CC=C(C)C=CC1=C(C)C(=O)CCC1(C)C)=CC=CC=C(C)C=CC=C(C)C=CC1=C(C)C(=O)CCC1(C)C [CANTHAXANTHIN (euglenanone) ] .
Result block: label 0

Query block: Outcome? "COc1cccc(NC(=O)N(C)C[C@@H]2Oc3cc(C#Cc4ccncc4)ccc3S(=O)(=O)N([C@H](C)CO)C[C@H]2C)c1"
Result block: label 1

Query block: Record request — test call for "O=C1CN(S(=O)(=O)Cc2ccccc2)C[C@@H]2[C@H](c3ccc(C#Cc4cccc(F)c4)cc3)[C@H](CO)N12"
Result block: label 1

Query block: Please share the test call associated with "COc1cccc(NC(=O)N(C)C[C@H]2Oc3cc(Br)ccc3S(=O)(=O)N([C@H](C)CO)C[C@H]2C)c1" .
Result block: label 0

Query block: Outcome? "O=C1N[C@@H](Cc2ccccc2)C(=O)N2[C@@H]1C[C@@H](C(=O)NCc1ccc(F)cc1)[C@H]2c1cccc(OCCO)c1"
Result block: label 0

====

- System: HepG2
- method: cytotoxicity call (relative viability < 0.9)
- condition: 10 µM
Hit rate of the full screen: of about 39,000 compounds, about 3,300 (8.5%) were called active. Shown is part of a subset that was picked to be rich in actives.
A correct response names exactly one class from active, inactive

Query block: For "CN(C)CCCNC(=O)[C@H]1[C@H](CO)[C@H]2Cn3c(ccc(-c4ccncc4)c3=O)[C@@H]1N2C(=O)C1CC1" , which call appears in the assay record?
Result block: inactive

Query block: Recorded call for "COC(=O)[C@H](Cc1ccc(-n2cc(-c3ccc(C(=O)NO)cc3)nn2)cc1)N1CC2=C[C@H]([C@@H](O)Cc3ccccc3)n3c(=O)n(C)c(=O)n3[C@@H]2[C@@H](C2CC2)O1" ?
Result block: inactive

Query block: Could you kindly confirm the outcome this assay logged for "N#CCC(=O)Nc1ccncc1" ?
Result block: inactive

Query block: Which outcome was assigned to "COC(=O)[C@H](Cc1ccc(-n2cc(-c3ccc(C(=O)NO)s3)nn2)cc1)N1CC2=C[C@H]([C@@H](O)Cc3ccccc3)n3c(=O)n(C)c(=O)n3[C@@H]2[C@@H](C2CC2)O1" in this test?
Result block: inactive

Query block: Write down the call the test reported for this compound. Item: "COC(=O)[C@H](Cc1ccc(-n2cc(-c3cccc(/C=C/C(=O)NO)c3)nn2)cc1)N1CC2=C[C@H]([C@@H](O)Cc3ccccc3)n3c(=O)n(C)c(=O)n3[C@@H]2[C@@H](C2CC2)O1"
Result block: active

Query block: Identify the outcome logged in this assay for the compound shown: CC(C)C(C)C=CC(C)C1CCC2C3=CC=C4CC(O)CCC4(C)C3CCC21C (configuration not stated)
Result block: inactive

Query block: # outcome recorded in this test, key = "c1ccc(CCNc2ccnc3cc4ccccc4cc23)cc1"
Result block: active
